Listed here: items and their measured Ki.
biological target: D(1A) dopamine receptor (Homo sapiens); assay: Compound was evaluated for binding affinity against Dopamine receptor D1 transfected in CHO cell membranes
Sequence (P21728 whole entry): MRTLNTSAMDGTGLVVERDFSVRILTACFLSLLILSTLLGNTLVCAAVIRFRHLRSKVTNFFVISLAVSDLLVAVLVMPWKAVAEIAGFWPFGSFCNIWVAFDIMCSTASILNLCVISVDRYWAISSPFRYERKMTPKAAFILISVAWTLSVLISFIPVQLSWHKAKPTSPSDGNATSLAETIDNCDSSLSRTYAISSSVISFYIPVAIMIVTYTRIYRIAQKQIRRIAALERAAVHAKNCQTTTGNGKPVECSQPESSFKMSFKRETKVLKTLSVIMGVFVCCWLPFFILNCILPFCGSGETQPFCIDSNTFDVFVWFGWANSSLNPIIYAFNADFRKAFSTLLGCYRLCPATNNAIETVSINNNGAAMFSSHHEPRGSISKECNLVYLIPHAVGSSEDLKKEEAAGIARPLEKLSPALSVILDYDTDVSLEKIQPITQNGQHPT

O=C(NCCCCN1CCN(c2cccc(Cl)c2Cl)CC1)c1ccc2c(c1)-c1ccccc1-2    > 10 µM

As a next step, examine the compound that follows.
// O=C(NCCCCN1CCN(c2cccc(Cl)c2Cl)CC1)c1ccc2c(c1)Cc1ccccc1-2 : Ki value = > 10 µM

* * *

Target: D(4) dopamine receptor (Homo sapiens, UniProt P21917)
Sequence (P21917 whole entry): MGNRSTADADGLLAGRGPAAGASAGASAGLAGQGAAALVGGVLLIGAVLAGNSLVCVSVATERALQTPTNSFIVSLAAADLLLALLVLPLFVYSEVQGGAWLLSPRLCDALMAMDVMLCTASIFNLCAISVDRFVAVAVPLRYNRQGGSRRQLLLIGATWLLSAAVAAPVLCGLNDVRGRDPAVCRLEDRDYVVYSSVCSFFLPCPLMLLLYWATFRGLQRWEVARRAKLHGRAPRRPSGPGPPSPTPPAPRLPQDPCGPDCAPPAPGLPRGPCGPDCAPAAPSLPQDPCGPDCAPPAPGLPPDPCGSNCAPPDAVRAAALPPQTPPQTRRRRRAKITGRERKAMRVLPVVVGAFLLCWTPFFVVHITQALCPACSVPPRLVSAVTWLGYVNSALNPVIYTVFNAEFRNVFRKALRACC
Assay: Affinity against D4 receptor was evaluated
MEASUREMENT LABEL: pKi
Please express pKi as -log10 of the molar concentration.

Reported pKi for COc1c(C(=O)NCCN2CCN(c3cccc(Cl)c3Cl)CC2)cc(Br)c2ccccc12 was 7.19
